// pIC50 collected for USP30 (Homo sapiens (Human))
pIC50: −log10 of the molar value.

Provide value of pIC50 for this record tested with USP30 (Homo sapiens (Human)): `CN(Cc1cc(-c2ccccc2)no1)C(=O)C=C1CCN(C#N)C1`
Sequence (Q70CQ3 57-517): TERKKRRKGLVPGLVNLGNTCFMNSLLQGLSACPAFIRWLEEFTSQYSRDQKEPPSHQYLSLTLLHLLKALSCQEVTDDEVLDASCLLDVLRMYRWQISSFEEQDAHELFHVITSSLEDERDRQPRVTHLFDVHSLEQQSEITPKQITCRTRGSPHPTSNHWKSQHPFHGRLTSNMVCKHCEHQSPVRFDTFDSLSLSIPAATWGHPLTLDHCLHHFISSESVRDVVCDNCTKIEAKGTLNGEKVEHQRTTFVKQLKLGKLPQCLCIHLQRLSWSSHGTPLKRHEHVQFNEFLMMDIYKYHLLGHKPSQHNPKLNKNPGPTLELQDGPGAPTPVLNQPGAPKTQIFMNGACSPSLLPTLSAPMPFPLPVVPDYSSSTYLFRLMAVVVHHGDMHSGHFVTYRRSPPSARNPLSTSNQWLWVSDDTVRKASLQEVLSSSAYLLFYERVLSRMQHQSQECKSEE
6.00 to 7.00

Record lookup: for USP30 (Homo sapiens (Human)), what pIC50 belongs to N#CN1CCC(CC(=O)Nc2cccc(Cl)c2)C1 (centres unmarked) ?
6.00 to 7.00

Missing value: pIC50, USP30 (Homo sapiens (Human)), entry N#CN1CCC(CC(=O)Nc2ccc(Cl)c(Cl)c2)C1 (centres unmarked) . Fill in?
6.00 to 7.00

Report pIC50 for `N#CN1CC[C@H](CC(=O)Nc2cc(-c3cccc(Cl)c3)no2)C1` tested on USP30 (Homo sapiens (Human)).
8.00 to 9.00

What is its pIC50 for USP30 (Homo sapiens (Human))? Entry: `COc1ccc(C2CN(C(=O)C=C3CCN(C#N)C3)C2)cc1`
6.00 to 7.00

# get_value(readout= pIC50, system= USP30 (Homo sapiens (Human))) for `N#Cc1ccc(C2CN(C(=O)C[C@@H]3CCN(C#N)C3)C2)nc1`
6.00 to 7.00

For the record `N#CN1CC[C@H](CC(=O)Nc2nnc(-c3ccccc3)s2)C1` , what value of pIC50 is listed for USP30 (Homo sapiens (Human))?
5.00 to 6.00

Form field - read-out: pIC50; system: USP30 (Homo sapiens (Human)); submitted item: `N#CN1CCC(=CC(=O)Nc2ccc3ncsc3c2)C1`
5.00 to 6.00

Checklist item: pIC50 tested on USP30 (Homo sapiens (Human)), entry N#CN1CCC(CC(=O)Nc2ccc(C(F)(F)F)nc2)C1 (centres unmarked) , value?
5.00 to 6.00

Please provide the recorded pIC50 for `CC(C)Oc1ccc(C2CN(C(=O)C[C@@H]3CCN(C#N)C3)C2)nc1` , tested on USP30 (Homo sapiens (Human)).
6.00 to 7.00

Field: pIC50 (USP30 (Homo sapiens (Human))). Entry: COc1ccc2nc(NC(=O)CC3CCN(C#N)C3)sc2c1 (centres unmarked)
6.00 to 7.00

Notebook entry, USP30 (Homo sapiens (Human)) assay: pIC50 of N#Cc1ccc(NC(=O)CC2CCN(C#N)C2)nc1 (centres unmarked) = ?
5.00 to 6.00

Provide value of pIC50 for this record tested with USP30 (Homo sapiens (Human)): N#CN1CCC(CC(=O)Nc2cc(-c3ccccc3)no2)C1 (centres unmarked)
6.00 to 7.00

Request body: readout pIC50, system USP30 (Homo sapiens (Human)), query N#CN1CCC(CC(=O)NC2CN(c3ccccn3)C2)C1 (centres unmarked) . Return the value.
6.00 to 7.00

Item `N#CN1CC[C@H](CC(=O)Nc2cc(-c3cccc(OC(F)(F)F)c3)no2)C1` with USP30 (Homo sapiens (Human)) - pIC50?
8.00 to 9.00

Could you share what pIC50 was measured for `COc1ccc(C2CN(C(=O)C[C@@H]3CCN(C#N)C3)C2)cc1-c1ccn[nH]1` , tested on USP30 (Homo sapiens (Human))?
7.00 to 8.00

// fetch USP30 (Homo sapiens (Human)) pIC50 for `N#CN1CCC(=CC(=O)Nc2ccc(Oc3ccccc3)cc2)C1`
7.00 to 8.00

// lookup pIC50 | system=USP30 (Homo sapiens (Human)) | key= `C[C@@H](C(=O)Nc1cc(-c2cccc(Cl)c2)no1)[C@@H]1CCN(C#N)C1`
7.00 to 8.00

Give the reported pIC50 for `N#CN1CCC(=CC(=O)NCc2cc(C(F)(F)F)ccc2F)C1` (system: USP30 (Homo sapiens (Human))).
5.00 to 6.00

Form field: pIC50 recorded for `N#Cc1ccc(C2CN(C(=O)C[C@@H]3CCN(C#N)C3)C2)cc1` with USP30 (Homo sapiens (Human)) (enter value)
6.00 to 7.00

Lab note: need pIC50 with USP30 (Homo sapiens (Human)) for entry `CN(Cc1ccc2ncccc2c1)C(=O)C=C1CCN(C#N)C1` , please look it up.
6.00 to 7.00

Give recorded pIC50 with USP30 (Homo sapiens (Human)) for the following compound: Cc1noc(C)c1-c1ccc2nc(NC(=O)CC3CCN(C#N)C3)cn2c1 (centres unmarked)
5.00 to 6.00

Give pIC50 (USP30 (Homo sapiens (Human))) of the following compound: `CN(Cc1cccc(-c2ccncc2)c1)C(=O)C=C1CCN(C#N)C1`
6.00 to 7.00

What pIC50 appears in the records for this compound with USP30 (Homo sapiens (Human))? `CN(Cc1cc(-c2ccccc2)on1)C(=O)C=C1CCN(C#N)C1`
6.00 to 7.00

What value of pIC50 on USP30 (Homo sapiens (Human)) does `CN(Cc1cc(-c2ccccc2)[nH]n1)C(=O)C=C1CCN(C#N)C1` have?
6.00 to 7.00

Kindly state the measured pIC50 obtained for `N#CN1CCC(=CC(=O)N2CC(c3ccccc3)C2)C1` with USP30 (Homo sapiens (Human)).
6.00 to 7.00

What reported pIC50 corresponds to `COc1ccc(C2CN(C(=O)C[C@@H]3CCN(C#N)C3)C2)cc1-c1cnn(C)c1` on USP30 (Homo sapiens (Human))?
7.00 to 8.00

Query pIC50 on USP30 (Homo sapiens (Human)) for `N#CN1CC[C@@H](CC(=O)Nc2cc(-c3cccc(Cl)c3)no2)C1`
7.00 to 8.00

Give recorded pIC50 with USP30 (Homo sapiens (Human)) for the following compound: `Cc1cc(C2CN(C(=O)C[C@@H]3CCN(C#N)C3)C2)ccc1C#N`
7.00 to 8.00

The reported numbers originate from patent US11014912B2.
